- system: XIAP BIR2-3 (Homo sapiens, UniProt P98170, C202A/C213G)
- Construct: His-BIR2-3 (125-356, C202A/C213G, XIAP)
- Sequence (P98170 125-356 C202A/C213G): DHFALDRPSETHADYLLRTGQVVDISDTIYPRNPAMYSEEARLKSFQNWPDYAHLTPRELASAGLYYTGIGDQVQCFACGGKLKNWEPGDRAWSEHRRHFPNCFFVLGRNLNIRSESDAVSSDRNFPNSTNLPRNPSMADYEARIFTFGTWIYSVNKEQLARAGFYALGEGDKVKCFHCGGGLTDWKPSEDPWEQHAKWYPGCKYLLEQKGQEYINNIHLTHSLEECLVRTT
- test summary: XIAP-BIR2-3 dimeric SMAC Peptide Homogeneous Time Resolved Fluorescence (HTRF) Assay
- Format: binding
Here the recorded pIC50 is given for each entry.
Just so you know, pIC50 here is -log10 of the concentration in molar units; reply with that number alone.

>>> observed("CN[C@@H](C)C(=O)N[C@H](C(=O)N1C[C@@H](c2ccc3c(c2)CN(C(=O)[C@@H](NC(=O)[C@H](C)NC)C(C)(C)C)[C@H](C(=O)N[C@@H]2CCCc4ccccc42)C3)C[C@H]1C(=O)N[C@@H](Cc1ccccc1)C(=O)NC(C)C)C(C)(C)C [Example 56]")
8.70

Value lookup for pIC50; key = CN[C@@H](C)C(=O)N[C@H](C(=O)N1C[C@@H](c2ccc3c(c2)CN(C(=O)[C@@H](NC(=O)[C@H](C)NC)C(C)(C)C)[C@H](C(=O)N[C@@H]2CCCc4ccccc42)C3)C[C@H]1C(=O)N[C@@H](Cc1ccccc1)C(=O)NCCc1ccccc1)C(C)(C)C [Example 66]
8.51

Returns the measured pIC50 for the input molecule. Input: CN[C@@H](C)C(=O)N[C@H](C(=O)N1Cc2cc(C(=O)N[C@H]3C[C@@H](C(=O)N[C@@H]4CCCc5ccccc54)N(C(=O)[C@@H](NC(=O)[C@H](C)NC)C(C)(C)C)C3)ccc2C[C@H]1C(=O)N[C@@H]1CCCc2ccccc21)C(C)(C)C [Example 1]
8.52

Suppose we examine the molecule CN[C@@H](C)C(=O)N[C@H](C(=O)N1Cc2cc([C@H]3C[C@@H](C(=O)N[C@@H]4CCCc5ccccc54)N(C(=O)[C@@H](NC(=O)[C@H](C)NC)C(C)(C)C)C3)ccc2C[C@H]1C(=O)N[C@@H]1CCCc2ccccc21)C(C)(C)C [Example 22] ; what pIC50 value has been reported?
9.00

I would be grateful if you could share the reported pIC50 for CN[C@@H](C)C(=O)N[C@H](C(=O)N1C[C@@H](c2ccc3c(c2)CN(C(=O)[C@@H](NC(=O)[C@H](C)NC)C(C)(C)C)[C@H](C(=O)N[C@@H]2CCCc4ccccc42)C3)C[C@H]1C(=O)N[C@@H](Cc1ccccc1)C(=O)NS(=O)(=O)c1ccccc1)C(C)(C)C [Example 48] .
9.15

What value of measured pIC50 is listed for CN[C@@H](C)C(=O)N[C@H](C(=O)N1Cc2cc(O[C@H]3C[C@@H](C(=O)N[C@@H]4CCCc5ccccc54)N(C(=O)[C@@H](NC(=O)[C@H](C)NC)C(C)(C)C)C3)ccc2C[C@H]1C(=O)N[C@@H]1CCCc2ccccc21)C(C)(C)C [Example 21] ?
8.52

Param item = CCN(CC)C(=O)[C@H](Cc1ccccc1)NC(=O)[C@@H]1C[C@H](c2ccc3c(c2)CN(C(=O)[C@@H](NC(=O)[C@H](C)NC)C(C)(C)C)[C@H](C(=O)N[C@@H]2CCCc4ccccc42)C3)CN1C(=O)[C@@H](NC(=O)[C@H](C)NC)C(C)(C)C [Example 62] ; retrieve measured pIC50.
8.72

Value lookup for pIC50; key = CN[C@@H](C)C(=O)N[C@H](C(=O)N1Cc2cc(N[C@H]3C[C@@H](C(=O)N[C@@H]4CCCc5ccccc54)N(C(=O)[C@@H](NC(=O)[C@H](C)NC)C(C)(C)C)C3)ccc2C[C@H]1C(=O)N[C@@H]1CCCc2ccccc21)C(C)(C)C [Example 20]
8.52

====

- system: XIAP BIR3 (Homo sapiens)
- Construct: His-BIR3 (241-356, XIAP)
- test summary: XIAP-BIR3/SMAC Homogeneous Time Resolved Fluorescence (HTRF) Assay
- Format: binding
- condition details: 1 nM N-His-BIR3 (241-356, XIAP), 5 nM fluorescein labeled SMAC peptide; HTRF signal; read-out: XIAP BIR3 IC50
metric name: IC50 (nM)
Report only the number, with the unit nM understood.

>>> observed("CN[C@@H](C)C(=O)N[C@H](C(=O)N1C[C@@H](c2ccc3c(c2)CN(C(=O)[C@@H](NC(=O)[C@H](C)NC)C(C)(C)SCC(=O)NCCO)[C@H](C(=O)N[C@@H]2CCCc4ccccc42)C3)C[C@H]1C(=O)N[C@@H]1CCCc2ccccc21)C(C)(C)C")
11.7
>>> observed("CN[C@@H](C)C(=O)N[C@H](C(=O)N1C[C@@H](c2ccc3c(c2)CN(C(=O)[C@@H](NC(=O)[C@H](C)NC)C(C)(C)C)[C@H](C(=O)N[C@@H]2CCCc4ccccc42)C3)C[C@H]1C(=O)N[C@@H](Cc1ccccc1)c1nnn[nH]1)C(C)(C)C")
8.9
>>> observed("CN[C@@H](C)C(=O)N[C@H](C(=O)N1Cc2cc(C(=O)N[C@H]3C[C@@H](C(=O)N[C@@H]4CCCc5ccccc54)N(C(=O)[C@@H](NC(=O)[C@H](C)NC)C(C)(C)C)C3)ccc2C[C@H]1C(=O)N[C@@H]1CCCc2ccccc21)[C@@H](C)OC")
6

Param readout = IC50; param system = XIAP BIR3 (Homo sapiens); param query = CN[C@@H](C)C(=O)N[C@H](C(=O)N1Cc2cc([C@H]3C[C@@H](C(=O)N[C@@H]4CCCc5ccccc54)N(C(=O)[C@@H](NC(=O)[C@H](C)NC)C(C)(C)C)C3)ccc2C[C@H]1C(=O)N[C@@H]1CCCc2cc(OC)ccc21)C(C)(C)C ; response: value
2.9

====

- system: XIAP BIR3 (Homo sapiens, UniProt P98170)
- Construct: His-BIR3 (241-356, XIAP)
- test summary: XIAP-BIR3/SMAC Homogeneous Time Resolved Fluorescence (HTRF) Assay
- Format: binding
- condition details: 1 nM N-His-BIR3 (241-356, XIAP), 5 nM fluorescein labeled SMAC peptide; HTRF signal; read-out: XIAP BIR3 IC50
metric name: pIC50
Note: pIC50 values are expressed as the negative base-10 logarithm of concentration in M.

>>> observed("CN[C@@H](C)C(=O)N[C@H](C(=O)N1Cc2cc(C3C[C@@H](C(=O)N[C@H](CO)Cc4ccccc4)N(C(=O)[C@@H](NC(=O)[C@H](C)NC)C(C)(C)C)C3)ccc2C[C@H]1C(=O)NC1CCCc2ccccc21)C(C)(C)C (stereo in doubt) [Example 74]")
7.87
>>> observed("CC[C@H](NC)C(=O)N[C@H](C(=O)N1Cc2cc(C(=O)N[C@H]3C[C@@H](C(=O)N[C@@H]4CCCc5ccccc54)N(C(=O)[C@@H](NC(=O)[C@H](C)NC)C(C)(C)C)C3)ccc2C[C@H]1C(=O)N[C@@H]1CCCc2ccccc21)C(C)(C)C [Example 3]")
8.22
>>> observed("CN[C@@H](C)C(=O)N[C@H](C(=O)N1CC(c2ccc3c(c2)CN(C(=O)[C@@H](NC(=O)[C@H](C)NC)C(C)(C)C)[C@H](C(=O)NC2CCCc4ccccc42)C3)C[C@H]1C(=O)NC(Cc1ccccc1)C(=O)Nc1ccc(F)cc1)C(C)(C)C (stereo in doubt) [Example 71]")
8.25

Please look at the following compound next.
Value lookup for pIC50; key = CN[C@@H](C)C(=O)N[C@H](C(=O)N1Cc2cc([C@H]3C[C@@H](C(=O)N[C@@H]4CCCc5ccccc54)N(C(=O)[C@@H](NC(=O)[C@H](C)NC)C(C)(C)C)C3)ccc2C[C@H]1C(=O)N[C@H](C)c1ccccc1F)C(C)(C)C [Example 23]
8.40

====

- system: XIAP BIR3 (Homo sapiens)
- Construct: His-BIR3 (241-356, XIAP)
- test summary: XIAP-BIR3/SMAC Homogeneous Time Resolved Fluorescence (HTRF) Assay
- Type: binding
- condition details: 1 nM N-His-BIR3 (241-356, XIAP), 5 nM fluorescein labeled SMAC peptide; HTRF signal; read-out: XIAP BIR3 IC50
metric name: pIC50
Note on pIC50: it is the negative log10 of concentration, concentration in mol/L.

>>> observed("CN[C@@H](C)C(=O)N[C@H](C(=O)N1C[C@@H](NC(=O)c2ccc3c(c2)CN(C(=O)[C@@H](NC(=O)[C@@H](NC)C(C)C)C(C)(C)C)[C@H](C(=O)N[C@@H]2CCCc4ccccc42)C3)C[C@H]1C(=O)N[C@@H]1CCCc2ccccc21)C(C)(C)C")
8.00
>>> observed("CN[C@@H](C)C(=O)N[C@H](C(=O)N1C[C@@H](NC(=O)c2ccc3c(c2)CN(C(=O)[C@@H](NC(=O)[C@@H](NC)C2CC2)C(C)(C)C)[C@H](C(=O)N[C@@H]2CCCc4ccccc42)C3)C[C@H]1C(=O)N[C@@H]1CCCc2ccccc21)C(C)(C)C")
7.85
>>> observed("CN[C@@H](C)C(=O)N[C@H](C(=O)N1C[C@@H](c2ccc3c(c2)CN(C(=O)[C@@H](NC(=O)[C@H](C)NC)C(C)(C)C)[C@H](C(=O)N[C@@H]2CCCc4ccccc42)C3)C[C@H]1C(=O)N[C@@H](Cc1ccccc1)C(=O)Nc1ccc(-c2cnco2)cc1)C(C)(C)C")
8.00

Consider the molecule shown here: CN[C@@H](C)C(=O)N[C@H](C(=O)N1C[C@@H](c2ccc3c(c2)CN(C(=O)[C@@H](NC(=O)[C@H](C)NC)C(C)(C)C)[C@H](C(=O)N[C@@H]2CCCc4ccccc42)C3)C[C@H]1C(=O)N[C@@H](Cc1ccccc1)C(=O)N(C)CCc1ccccn1)C(C)(C)C What is its recorded pIC50?
8.17

What value of measured pIC50 is listed for CN[C@@H](C)C(=O)N[C@H](C(=O)N1C[C@@H](c2ccc3c(c2)CN(C(=O)[C@@H](NC(=O)[C@H](C)NC)C(C)(C)C)[C@H](C(=O)N[C@@H]2CCCc4ccccc42)C3)C[C@H]1C(=O)N[C@@H](Cc1ccccc1)c1nnc(C)o1)C(C)(C)C ?
7.78

Any idea what its pIC50 is? The molecule is CN[C@@H](C)C(=O)N[C@H](C(=O)N1C[C@@H](c2ccc3c(c2)CN(C(=O)[C@@H](NC(=O)[C@H](C)NC)C(C)(C)C)[C@H](C(=O)N[C@@H]2CCCc4ccccc42)C3)C[C@H]1C(=O)N[C@@H](Cc1ccccc1)C(=O)NS(=O)(=O)c1ccc2ccccc2c1)C(C)(C)C
9.40

What value of measured pIC50 is listed for CN[C@@H](C)C(=O)N[C@H](C(=O)N1Cc2cc([C@H]3C[C@@H](C(=O)N[C@@H]4CCCc5ccccc54)N(C(=O)[C@@H](NC(=O)[C@H](C)NC)C(C)(C)C)C3)ccc2C[C@H]1C(=O)N[C@@H](CO)c1ccccc1F)C(C)(C)C ?
8.48
